- Test system: SF-539
- assay: NCI tumour cell line growth inhibition, 48 h
Activity calls are given as the source filed them. Rule as the data show it: active = GI50 up to about 1.1 µM and inactive = higher.
Form entry, call: pick from T = active, F = inactive

Inquiry: Dear all, I need the recorded test outcome for CC(=O)OC1C/C(C)=C/[C@H](O)CC(C)/C=C/[C@@]2(C)CCC(C(C)(C)O)C12 (stereo partly drawn) , thank you.
Reply text: F

Inquiry: Recorded test call requested for "CCc1n[nH]c(=O)n1O"
Reply text: F

Inquiry: Each compound tested received a call. Report the one for "C/C(CC(=O)Nc1cccc([N+](=O)[O-])c1)=N\NC(=O)CC#N" .
Reply text: F

Inquiry: Any idea what this test logged for CCN(CC)C1Oc2cc3c(cc2C(c2cc(OC)c(OC)c(OC)c2)C1C)OCO3 (stereo not drawn) ?
Reply text: T

Inquiry: Identify the outcome logged in this assay for the compound shown: CCCCCCCCCOCC(COP(=O)([O-])OCC[N+](C)(C)C)OC (stereo not drawn)
Reply text: F

Inquiry: I'd appreciate the recorded outcome for "CC(=O)CC(=O)ON(C)C(=O)Cc1ccccc1" from this test.
Reply text: F

Inquiry: Short answer needed: outcome of this test for "CN1CC(c2ccccc2)=CC2=C1C=CC(=N)/C2=N\N" ?
Reply text: F

Inquiry: # fetch the recorded call for "Cc1c[n+]([O-])c2ccccc2[n+]1[O-]" here
Reply text: F

Inquiry: What outcome does the record of this test show for Nc1nc2c(ncn2C2CCC(CO)O2)c(=O)n1C(=O)c1ccccc1 (stereo not drawn) ?
Reply text: F

Inquiry: Record lookup: outcome of this test for "N#Cc1c(C#N)c(-c2ccccc2)n(/N=C\c2ccccc2)c1N" ?
Reply text: F

Inquiry: Which outcome did this test record for the compound "FC(F)(F)c1ccc2c(-c3cc[nH]c3)ccnc2c1" ?
Reply text: F

Inquiry: Dear all, I need the recorded test outcome for "CC1(C)[C@@H]2CC[C@@]1(C)[C@@H]1O[C@@H](O[C@@H](CN)c3cc(Cl)c(OCc4ccccc4)c(OCc4ccccc4)c3)C[C@H]21" , thank you.
Reply text: T

Inquiry: Would you mind telling me which call this test gave "Cc1cc(C(C)(C)C)cc(CNC2CCCCC2)c1O" ?
Reply text: F

Inquiry: What was the test verdict on N#CC1(C2SCC[S+]2[O-])C2=C(C(=O)c3ccccc3C2=O)N2CCCC21 (stereo not drawn) ?
Reply text: F

Inquiry: Any idea what this test logged for "CCN(CC)CCSc1c(C(C)=O)c(=O)n(-c2ccccc2)c(=S)n1-c1ccccc1" ?
Reply text: F

Inquiry: Per the records of this test, what outcome belongs to Cc1ccc2c(c1)CC1(C2=O)[C@H](c2ccccc2)C2C(=O)c3ccc(C)cc3C2[C@H]1c1ccccc1 (stereo partly drawn) ?
Reply text: F

Inquiry: Short answer needed: outcome of this test for CCCCCCCCC/C=C/C=C/C(=O)NCC(=O)NC1C(O)C(O)C(Nc2ncnc3[nH]cnc23)OC1C(O)CO (stereo not drawn) ?
Reply text: T

Inquiry: So what was the verdict on OC[C@H]1CC(c2nn[nH]n2)[C@H](O)[C@@H]1O (stereo partly drawn) in this test?
Reply text: F

Inquiry: Which result was noted for this compound in the test: "CCOC(=O)NC(=O)c1cn(CCN(CCO)C(=O)NCCCCCCNC(=O)N(CCO)CCn2cc(C(=O)NC(=O)OCC)c(=O)[nH]c2=O)c(=O)[nH]c1=O"
Reply text: F

Inquiry: Please let me know the test result on file for "O=C(/C=C/c1ccsc1)c1ccc(Cl)s1" .
Reply text: F

Inquiry: Could you kindly confirm the outcome this assay logged for "CCOc1ccccc1NC(=O)CCc1nnc2s/c(=C\CCc3ccccc3)c(=O)n12" ?
Reply text: F

Inquiry: Which result was noted for this compound in the test: "Cc1cc(-n2nnc(C(=O)O)c2-c2ccccc2)c2ccc(Cl)cc2n1"
Reply text: F

Inquiry: Would you mind telling me which call this test gave CC(C(=O)c1ccc(O)cc1)C1(O)C(=O)Nc2c(Cl)cc(Cl)cc21 (stereo not drawn) ?
Reply text: F

Inquiry: I'd appreciate the recorded outcome for "Cc1ccc2nc(CN3CCCCC3)cc(=O)n2c1" from this test.
Reply text: F

Inquiry: Hi team, can someone confirm the assay call for "COc1cccc(OC)c1C(=O)OCc1ccccc1" ?
Reply text: F

Inquiry: Look up the recorded call for CCC(=O)Nc1ccc(N2C(=O)C(Cl)C2c2ccc(SC)cc2)cc1 (stereo not drawn) in this test.
Reply text: F

Inquiry: What classification did "COC(=O)C1=C(C)NC(C)=C(C(=O)OC)C1c1ccc(/[N+]([O-])=C/c2ccccc2)cc1" end up with in this test?
Reply text: F

Inquiry: What classification did CC(=O)CC(=O)CCC(=O)O [SUCCINYLACETONE] end up with in this test?
Reply text: F

Inquiry: Field: outcome | Entry: "CC(C)N(Cc1ccccc1)S(=O)(=O)c1nc(C(C)(C)C)n[nH]1"
Reply text: F

Inquiry: How was "CN(C)CCNc1nc2c(no[n+]2[O-])c2ccccc12.[O-][Cl+3]([O-])([O-])O" classified in this test?
Reply text: F

Inquiry: Give the logged outcome of this assay for the following compound: Nc1ccn(C2CCC(CO)O2)c(=O)n1 (stereo not drawn)
Reply text: F

Inquiry: Test call, this compound: COC(=O)/C=C(\C)CC(O)/C=C(\C)CCC=C(C)C (stereo not drawn)
Reply text: F

Inquiry: Can you look up the reported call for "O=[N+]([O-])c1cc(F)ccc1Sc1ccccc1" for me?
Reply text: F

###

- Tested on: SK-MEL-5
- assay: NCI tumour cell line growth inhibition, 48 h
The source made the active and inactive calls. Rule as the data show it: active = GI50 up to about 1.1 µM and inactive = higher.
property-measured: GI50

Inquiry: Provide only the value of recorded GI50 for "CC(=O)Oc1cc(Cl)c(OC(C)=O)c2c(OC(C)=O)c(C)c(O[Si](C)(C)C(C)(C)C)cc12"
Reply text: 4.41 µM (inactive)

Inquiry: // fetch GI50 given entry "[O-][n+]1cn[n+]([O-])c2ccccc21"
Reply text: > 10 µM (inactive)

Inquiry: Read the entry CC1CC[C@@]2(OC1)OC1C[C@H]3[C@@H]4CC=C5CC(OC6OC(CO)C(OC7OC(CO)C(O)C(OC8OCC(O)C(O)C8O)C7OC7OC(CO)C(OC8OC(C)C(OC9OC(C)C(O)C(O)C9O)C(O)C8O)C(O)C7O)C(O)C6O)CCC5(C)[C@H]4CCC3(C)C1[C@@H]2C (stereo not given in full) and write its reported GI50.
Reply text: 8.69 µM (inactive)

Inquiry: Please report GI50 for the following molecule: "CCN(CC)CCSc1c(C(C)=O)c(=O)n(-c2ccccc2)c(=S)n1-c1ccccc1"
Reply text: 13.8 µM (inactive)

Inquiry: Given CCOC(=O)[C@H]1Nc2ccc(C)cc2C2c3ccccc3CC21 (stereo not given in full) , respond with its GI50.
Reply text: > 100 µM (inactive)

###

- System: PC-3
- assay: NCI tumour cell line growth inhibition, 48 h
The source made the active and inactive calls. No stated cut-off is given here; in the data, active = GI50 up to about 1.1 µM and inactive = higher.
Assign GI50 to each entry below.

Inquiry: Indicate its recorded GI50; the compound in question is COc1ccc(C(=O)NCCC2CN(S(=O)(=O)C(F)(F)F)c3ccccc32)c(OC)c1 (centres undefined)
Reply text: 36 µM (inactive)

Inquiry: Look up and state reported GI50 for "Cc1ccc(NCCCN2CCN(CCCNc3ccc(C)c4sc5ccccc5c(=O)c34)CC2)c2c(=O)c3ccccc3sc12"
Reply text: 21.4 µM (inactive)

Inquiry: Indicate the recorded GI50 value for this compound: CC(=O)Nc1ccc(S(=O)(=O)Nc2nc(-c3ccc(Cl)cc3)cc(N3N=C(c4ccc(Br)cc4)CC3c3ccccc3)n2)cc1 (centres undefined)
Reply text: 14 µM (inactive)

Inquiry: Identify the reported GI50 for the following entry. "COc1ccccc1/C=C1\Sc2scc(-c3ccc(O)c(O)c3)[n+]2C1=O"
Reply text: 28.2 µM (inactive)

Inquiry: Specify measured GI50 for "CS(=O)(=O)OCCN1CCC2(CC1)SSC1(CCN(CCOS(C)(=O)=O)CC1)S2" .
Reply text: 44.7 µM (inactive)

Inquiry: Using the record for "N=c1nc(N)nc(N)n1-c1ccc(S(N)(=O)=O)cc1" , state its measured GI50.
Reply text: > 100 µM (inactive)

Inquiry: Input O=C1CCCCCCCCCCC1CN(Cc1ccccc1)Cc1ccccc1 (centres undefined) , output reported GI50.
Reply text: 30.9 µM (inactive)

Inquiry: Supply GI50 value. Item: "Oc1ccc(/C=C/c2cc(O)cc(O)c2)cc1"
Reply text: 42.4 µM (inactive)

Inquiry: Note down GI50 recorded for Cc1ccc2c(c1)CC1(C2=O)[C@H](c2ccccc2)C2C(=O)c3ccc(C)cc3C2[C@H]1c1ccccc1 (some centres undefined)
Reply text: 37.8 µM (inactive)

Inquiry: Provide only the value of recorded GI50 for Cc1ccc(S(=O)(=O)NNC(C[N+](=O)[O-])c2ccccc2)cc1 (centres undefined)
Reply text: 57.9 µM (inactive)

Inquiry: Give the reported value of GI50 for this record: "CN(C)CCNc1nc2c(no[n+]2[O-])c2ccccc12.[O-][Cl+3]([O-])([O-])O"
Reply text: 28 µM (inactive)

Inquiry: Quick one: give measured GI50 for O=C1c2ccccc2C2C1C(c1ccccc1)C1(Cc3ccccc3C1=O)C2c1ccccc1 (centres undefined)
Reply text: 12.5 µM (inactive)

Inquiry: Complete the entry with GI50 for "C/C1=C\[C@H](C)C[C@H](C)OC(=O)C[C@H](c2ccc(O)cc2)NC(=O)[C@H](Cc2ccc(O)c(Br)c2)N(C)C(=O)[C@H](C)NC(=O)[C@@H](C)C1"
Reply text: > 25 µM (inactive)

Inquiry: Please look at this compound and report its GI50: CCC1(C)C=Cc2c(cc(O)c3c(=O)c4ccccc4n(C)c23)O1 (centres undefined)
Reply text: > 10 µM (inactive)

Inquiry: Query GI50 for CCC1(c2ccc(N3C(=O)c4cccc5cc([N+](=O)[O-])cc(c45)C3=O)cc2)CCC(=O)NC1=O (centres undefined)
Reply text: 20.9 µM (inactive)

Inquiry: // Input: "C=CCn1c(=O)c(Br)nn(CCOCP(=O)(OCC)OCC)c1=O" . Output its GI50 only.
Reply text: > 100 µM (inactive)

Inquiry: Report GI50 for "CCc1n[nH]c(=O)n1CCO"
Reply text: > 100 µM (inactive)

Inquiry: Return reported GI50. Input compound: "CC(=O)O[C@@H]1[C@@H](O)C2=C3[C@]4(C)[C@@H]1C(C)(C)C(=O)C[C@@H]4[C@]3(O)[C@H](OC(C)=O)[C@@]1(C[C@@H]1C)C2=O"
Reply text: 19.6 µM (inactive)

Inquiry: Look up GI50 of Cc1ccc(OCC2OC(n3cnc4nc(Cl)nc(Cl)c43)CC2Oc2ccc(C)cc2)cc1 (centres undefined) and report it.
Reply text: 11.6 µM (inactive)

These data points were gathered from ChEMBL document CHEMBL1201862.
